assay: in vivo; parameters: species or system BALB/c nude mice; conditions: female, BALB/c nude, mouse, iv, 3.7 MBq, total radioactivity
Numbered stars: 1 amine (or outer) side, 2 acyl side, 3 side chain; on linkers, the order of the positions; unused ones are H or OH. Square brackets hold non-standard residues; d marks the D form. Peptide text beside a SMILES is read from it. * marks the point of attachment. DOTA = O=C(O)CN1CCN(CC(=O)O)CCN(CC(=O)*)CCN(CC(=O)O)CC1; d(γGlu) = O=C(O)[C@@H](CCC(=O)[*:2])N[*:1]; 1Nal = N[C@@H](Cc1cccc2ccccc12)C(=O)O; NMeNle = CCCC[C@H](NC)C(=O)O; PEG4 = NCCOCCOCCOCCOCCC(=O)O
MEASURED_QUANTITY: tissue uptake at 0.5 h (%ID/g)
One number for each entry, in %ID/g.

GET /value?item= CCCC[C@@H](C(=O)N[C@@H](CC(=O)O)C(=O)N[C@@H](Cc1cccc2ccccc12)C(N)=O)N(C)C(=O)[C@H](Cc1c[nH]c2ccccc12)NC(=O)CCOCCOCCOCCOCCNC(=O)CC[C@@H](NC(=O)CN1CCN(CC(=O)O)CCN(CC(=O)O)CCN(CC(=O)O)CC1)C(=O)O [[68Ga]Ga-DOTA-CCK-66, metal not drawn, reference compound] ({DOTA-d(γGlu)-PEG4}-W[NMeNle]D[1Nal]-NH2) &field=tissue uptake at 0.5 h returns 16

###

experiment: in vivo; parameters: species or system BALB/c nude mice; settings: female, BALB/c nude, mouse, iv, 3.7 MBq, total radioactivity, Tumor-to-Bone ratio (T/B)
Numbered stars: 1 amine (or outer) side, 2 acyl side, 3 side chain; on linkers, the order of the positions; unused ones are H or OH. Square brackets hold non-standard residues; d marks the D form. Peptide text beside a SMILES is read from it. * marks the point of attachment. DOTA = O=C(O)CN1CCN(CC(=O)O)CCN(CC(=O)*)CCN(CC(=O)O)CC1; d(γGlu) = O=C(O)[C@@H](CCC(=O)[*:2])N[*:1]; 1Nal = N[C@@H](Cc1cccc2ccccc12)C(=O)O; NMeNle = CCCC[C@H](NC)C(=O)O; PEG4 = NCCOCCOCCOCCOCCC(=O)O
MEASURED_QUANTITY: tissue to tissue ratio at 1 h
One number for each entry.

GET /value?item= CCCC[C@@H](C(=O)N[C@@H](CC(=O)O)C(=O)N[C@@H](Cc1cccc2ccccc12)C(N)=O)N(C)C(=O)[C@H](Cc1c[nH]c2ccccc12)NC(=O)CCOCCOCCOCCOCCNC(=O)CC[C@@H](NC(=O)CN1CCN(CC(=O)O)CCN(CC(=O)O)CCN(CC(=O)O)CC1)C(=O)O [[68Ga]Ga-DOTA-CCK-66, metal not drawn, reference compound] ({DOTA-d(γGlu)-PEG4}-W[NMeNle]D[1Nal]-NH2) &field=tissue to tissue ratio at 1 h returns 34.9

###

assay: in vivo; parameters: species or system BALB/c nude mice; conditions: mouse, Tumor uptake
Numbered stars: 1 amine (or outer) side, 2 acyl side, 3 side chain; on linkers, the order of the positions; unused ones are H or OH. Square brackets hold non-standard residues; d marks the D form. Peptide text beside a SMILES is read from it. * marks the point of attachment. DOTA = O=C(O)CN1CCN(CC(=O)O)CCN(CC(=O)*)CCN(CC(=O)O)CC1; d(γGlu) = O=C(O)[C@@H](CCC(=O)[*:2])N[*:1]; 1Nal = N[C@@H](Cc1cccc2ccccc12)C(=O)O; NMeNle = CCCC[C@H](NC)C(=O)O; PEG4 = NCCOCCOCCOCCOCCC(=O)O
MEASURED_QUANTITY: tissue uptake at 0.5 h (%ID/g)
One number for each entry, in %ID/g.

GET /value?item= CCCC[C@@H](C(=O)N[C@@H](CC(=O)O)C(=O)N[C@@H](Cc1cccc2ccccc12)C(N)=O)N(C)C(=O)[C@H](Cc1c[nH]c2ccccc12)NC(=O)CCOCCOCCOCCOCCNC(=O)CC[C@@H](NC(=O)CN1CCN(CC(=O)O)CCN(CC(=O)O)CCN(CC(=O)O)CC1)C(=O)O [[68Ga]Ga-DOTA-CCK-66, metal not drawn, reference compound] ({DOTA-d(γGlu)-PEG4}-W[NMeNle]D[1Nal]-NH2) &field=tissue uptake at 0.5 h returns 3

###

test: in vivo; design: species or system BALB/c nude mice; conditions: mouse, Kidney uptake
Numbered stars: 1 amine (or outer) side, 2 acyl side, 3 side chain; on linkers, the order of the positions; unused ones are H or OH. Square brackets hold non-standard residues; d marks the D form. Peptide text beside a SMILES is read from it. * marks the point of attachment. DOTA = O=C(O)CN1CCN(CC(=O)O)CCN(CC(=O)*)CCN(CC(=O)O)CC1; d(γGlu) = O=C(O)[C@@H](CCC(=O)[*:2])N[*:1]; 1Nal = N[C@@H](Cc1cccc2ccccc12)C(=O)O; NMeNle = CCCC[C@H](NC)C(=O)O; PEG4 = NCCOCCOCCOCCOCCC(=O)O
MEASURED_QUANTITY: tissue uptake at 1 h (%ID/g)
Answers are plain numbers, in %ID/g.

GET /value?item= CCCC[C@@H](C(=O)N[C@@H](CC(=O)O)C(=O)N[C@@H](Cc1cccc2ccccc12)C(N)=O)N(C)C(=O)[C@H](Cc1c[nH]c2ccccc12)NC(=O)CCOCCOCCOCCOCCNC(=O)CC[C@@H](NC(=O)CN1CCN(CC(=O)O)CCN(CC(=O)O)CCN(CC(=O)O)CC1)C(=O)O [[68Ga]Ga-DOTA-CCK-66, metal not drawn, reference compound] ({DOTA-d(γGlu)-PEG4}-W[NMeNle]D[1Nal]-NH2) &field=tissue uptake at 1 h returns 7.52

###

assay: in vivo; set-up: species or system BALB/c nude mice; details: mouse, Lung uptake
Numbered stars: 1 amine (or outer) side, 2 acyl side, 3 side chain; on linkers, the order of the positions; unused ones are H or OH. Square brackets hold non-standard residues; d marks the D form. Peptide text beside a SMILES is read from it. * marks the point of attachment. DOTA = O=C(O)CN1CCN(CC(=O)O)CCN(CC(=O)*)CCN(CC(=O)O)CC1; d(γGlu) = O=C(O)[C@@H](CCC(=O)[*:2])N[*:1]; 1Nal = N[C@@H](Cc1cccc2ccccc12)C(=O)O; NMeNle = CCCC[C@H](NC)C(=O)O; PEG4 = NCCOCCOCCOCCOCCC(=O)O
MEASURED_QUANTITY: tissue uptake at 1 h (%ID/g)
Answers are plain numbers, in %ID/g.

GET /value?item= CCCC[C@@H](C(=O)N[C@@H](CC(=O)O)C(=O)N[C@@H](Cc1cccc2ccccc12)C(N)=O)N(C)C(=O)[C@H](Cc1c[nH]c2ccccc12)NC(=O)CCOCCOCCOCCOCCNC(=O)CC[C@@H](NC(=O)CN1CCN(CC(=O)O)CCN(CC(=O)O)CCN(CC(=O)O)CC1)C(=O)O [[68Ga]Ga-DOTA-CCK-66, metal not drawn, reference compound] ({DOTA-d(γGlu)-PEG4}-W[NMeNle]D[1Nal]-NH2) &field=tissue uptake at 1 h returns 1.25

###

assay: in vivo; set-up: species or system BALB/c nude mice; details: mouse, Brain uptake
Numbered stars: 1 amine (or outer) side, 2 acyl side, 3 side chain; on linkers, the order of the positions; unused ones are H or OH. Square brackets hold non-standard residues; d marks the D form. Peptide text beside a SMILES is read from it. * marks the point of attachment. DOTA = O=C(O)CN1CCN(CC(=O)O)CCN(CC(=O)*)CCN(CC(=O)O)CC1; d(γGlu) = O=C(O)[C@@H](CCC(=O)[*:2])N[*:1]; 1Nal = N[C@@H](Cc1cccc2ccccc12)C(=O)O; NMeNle = CCCC[C@H](NC)C(=O)O; PEG4 = NCCOCCOCCOCCOCCC(=O)O
MEASURED_QUANTITY: tissue uptake at 2 h (%ID/g)
Give bare numbers, in %ID/g.

GET /value?item= CCCC[C@@H](C(=O)N[C@@H](CC(=O)O)C(=O)N[C@@H](Cc1cccc2ccccc12)C(N)=O)N(C)C(=O)[C@H](Cc1c[nH]c2ccccc12)NC(=O)CCOCCOCCOCCOCCNC(=O)CC[C@@H](NC(=O)CN1CCN(CC(=O)O)CCN(CC(=O)O)CCN(CC(=O)O)CC1)C(=O)O [[68Ga]Ga-DOTA-CCK-66, metal not drawn, reference compound] ({DOTA-d(γGlu)-PEG4}-W[NMeNle]D[1Nal]-NH2) &field=tissue uptake at 2 h returns 0.07

###

assay: in vivo; design: species or system BALB/c nude mice; conditions: mouse, Heart uptake
Numbered stars: 1 amine (or outer) side, 2 acyl side, 3 side chain; on linkers, the order of the positions; unused ones are H or OH. Square brackets hold non-standard residues; d marks the D form. Peptide text beside a SMILES is read from it. * marks the point of attachment. DOTA = O=C(O)CN1CCN(CC(=O)O)CCN(CC(=O)*)CCN(CC(=O)O)CC1; d(γGlu) = O=C(O)[C@@H](CCC(=O)[*:2])N[*:1]; 1Nal = N[C@@H](Cc1cccc2ccccc12)C(=O)O; NMeNle = CCCC[C@H](NC)C(=O)O; PEG4 = NCCOCCOCCOCCOCCC(=O)O
MEASURED_QUANTITY: tissue uptake at 0.5 h (%ID/g)
One number for each entry, in %ID/g.

GET /value?item= CCCC[C@@H](C(=O)N[C@@H](CC(=O)O)C(=O)N[C@@H](Cc1cccc2ccccc12)C(N)=O)N(C)C(=O)[C@H](Cc1c[nH]c2ccccc12)NC(=O)CCOCCOCCOCCOCCNC(=O)CC[C@@H](NC(=O)CN1CCN(CC(=O)O)CCN(CC(=O)O)CCN(CC(=O)O)CC1)C(=O)O [[68Ga]Ga-DOTA-CCK-66, metal not drawn, reference compound] ({DOTA-d(γGlu)-PEG4}-W[NMeNle]D[1Nal]-NH2) &field=tissue uptake at 0.5 h returns 0.28
